Listed below: Kd values for each entry.
Molecular target: T1, mouse BMP9 (mouse, UniProt Q9WV56 319-428, limits assumed)
T1 construct: also called murine BMP9; mouse BMP9 (iPROT101715)
T1 sequence (looked up): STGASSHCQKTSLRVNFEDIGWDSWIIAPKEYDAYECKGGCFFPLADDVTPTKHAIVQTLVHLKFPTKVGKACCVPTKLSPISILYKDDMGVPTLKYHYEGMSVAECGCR
Assay: MSD-SET solution equilibrium titration
# value in pM; strip the unit string

The examples below pair each entry with its known result.
Antibody BMP9-4: AM4405 (antibody, human IgG1, kappa, V domains shown, also called 2B11G2-AM4405) VH: QVQLVQSGAEVKKPGASVKVSCKASGYTFRSYNMHWVRQAPGQGLEWMGLIYPGNAVTSYSQKFKDRVTMTVDKSTSTAYMELSSLRSEDTAVYYCAKDDYFRGGSYAMDYWGQGTTVTVSS VL: EIVLTQSPDFQSVTPKEKVTITCRASQSIRNNLHWYQQKPDQSPKLLIKYASQSIRGVPSRFSGSGSGTDFTLTINSLEAEDAATYYCQQSHSWPYTFGGGTKVEIKR    8
Antibody BMP9-2: MOR022962 (antibody, human IgG1, kappa, V domains shown) VH: QVQLLESGGGLVQPGGSLRLSCAASGFTFSSYAMSWVRQAPGKGLEWVSITLGTGHTHYADSVKGRFTISRDNSKNTLYLQMNSLRAEDTAVYYCARGSYIIWSALDYWGQGTLVTVSS VL: DIQMTQSPSSLSASVGDRVTITCRASQDIRSYLNWYQQKPGKAPKLLIYDASNLQSGVPSRFSGSGSGTDFTLTISSLQPEDFATYYCQQSDTSPLTFGQGTKVEIKR    5

Here's the next entry for you.
Exercise: Retrieve Kd measured for Antibody BMP9-7: MOR023787 (antibody, human IgG1, lambda, V domains shown, Fully human, phage display) VH: QVQLVESGGGLVKPGGSLRLSCAASGFTFSSAWMSWVRQAPGKGLEWVGHIKSKTYGGTIDYAAPVKGRFTISRDDSKNTLYLQMNSLKTEDTAVYYCARVGGYYGYGYAFAYWGQGTLVTVSS VL: SYELTQPLSVSVALGQTARITCSGDNIGDKYVSWYQQKPGQAPVLVIYDDNKRPSGIPERFSGSNSGNTATLTISRAQAGDEADYYCSSTASKSFNVFGGGTKLTVLG and print it.
Solution: 740
